- tgt: human recombinant MAO-A (Homo sapiens (Human), UniProt P21397)
- Sequence (P21397 whole entry): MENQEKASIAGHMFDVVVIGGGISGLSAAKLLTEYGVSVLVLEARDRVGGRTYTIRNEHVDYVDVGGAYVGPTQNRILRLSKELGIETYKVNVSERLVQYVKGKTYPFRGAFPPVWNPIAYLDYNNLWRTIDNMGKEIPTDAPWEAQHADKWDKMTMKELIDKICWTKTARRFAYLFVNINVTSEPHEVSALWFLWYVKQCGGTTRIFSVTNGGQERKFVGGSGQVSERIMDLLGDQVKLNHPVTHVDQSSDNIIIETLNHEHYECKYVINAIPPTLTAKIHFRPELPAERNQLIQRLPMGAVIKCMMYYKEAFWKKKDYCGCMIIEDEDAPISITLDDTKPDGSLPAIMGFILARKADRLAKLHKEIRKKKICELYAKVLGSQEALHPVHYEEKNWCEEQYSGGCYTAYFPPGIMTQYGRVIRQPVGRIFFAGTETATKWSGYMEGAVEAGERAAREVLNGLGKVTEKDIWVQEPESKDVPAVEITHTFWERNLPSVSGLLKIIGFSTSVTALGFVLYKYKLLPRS
- experimental details: Monoaminooxidase (MAO) activity assay, MAO-Glo luminescent method, MAO-A
- measurement conditions: read-out: MAO A activity IC50; human recombinant MAO-A, substrate 40 μM, 60 min room temperature
Where a name gives a salt, the structure may show the parent alone.
measured quantity: log10(IC50) (log10 of the value in nM)
All values: base-10 log of IC50 in nM.

Reference set (8 entries):
compound	number
c1cn(-c2ccc3nc(-c4ccc5occc5c4)ncc3c2)cn1 [Example 14, dihydrochloride trihydrate]	2.54
COc1ccc(-c2ccc3cc(-n4ccnc4)ccc3n2)cc1 [Example 18, dihydrochloride]	2.83
FC(F)(F)Oc1ccc(-c2ccc3cc(-n4ccnc4)ccc3n2)cc1 [Example 23, dihydrochloride]	2.18
c1ccc(-c2ncc3cc(-n4ccnc4)ccc3n2)cc1	2.34
c1cn(-c2ccc3nc(-c4ccoc4)ccc3c2)cn1 [Example 20, dihydrochloride]	2.40
Cc1cc(OC(F)(F)F)ccc1-c1ccc2cc(-n3ccnc3)ccc2n1 [Example 24, dihydrochloride]	2.45
CN(C)c1ccc(-c2ccc3cc(-n4ccnc4)ccc3n2)cc1 [Example 22, trihydrochloride]	3.32
c1cn(-c2ccc3nc(-c4ccc5c(c4)OCO5)ncc3c2)cn1	4.00

Which log10(IC50) reading was recorded for the compound Cc1cn(-c2ccc3nc(-c4ccccc4)ncc3c2)cn1 ? 3.31

---

- tgt: human recombinant MAO-A (Homo sapiens (Human))
- experimental details: Monoaminooxidase (MAO) activity assay, MAO-Glo luminescent method, MAO-A
pIC50: −log10 of the molar value. Where a name gives a salt, the structure may show the parent alone.
Overview of reported pIC50 across a group of compounds:

Reference set (5 entries):
compound	pIC50
Cc1cn(-c2ccc3nc(-c4ccc5c(c4)OCO5)ncc3c2)cn1	< 5.00
N=C(N)NCCCCN [Agmatine, reference compound]	< 4.00
Cc1nccn1-c1ccc2nc(-c3ccccc3)ncc2c1	< 5.00
COc1ccccc1-c1ccc2cc(-n3ccnc3)ccc2n1 [Example 19, dihydrochloride]	< 5.00
c1ccc2c(c1)OCC(C1=NCCN1)O2 (stereo not drawn) [Idazoxan, reference compound]	< 6.00

Turning to the following compound.
Which pIC50 reading was recorded for the compound c1cn(-c2ccc3nc(-c4ccc5c(c4)OCO5)ccc3c2)cn1 [Example 16, dihydrochloride] ? < 5.00
